- ASSAYED TARGET: recombinant homotrimeric HA, A/California/4/09 H1N1 (Influenza A virus A/California/4/09 (H1N1))
- ASSAY METHOD TEXT: trimeric HA microarray, transfection set 5
- TEST SETTINGS: remark: other sources report otherwise
METRIC: Trimeric HA Binding RLU (RLU)
Give the value in RLU but do not write RLU after it.

Given TCN-540 (5060_F05) (antibody, V domains shown) VH: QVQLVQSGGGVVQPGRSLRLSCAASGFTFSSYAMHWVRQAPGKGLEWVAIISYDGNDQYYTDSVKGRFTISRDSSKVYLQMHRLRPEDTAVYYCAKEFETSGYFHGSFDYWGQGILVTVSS VL: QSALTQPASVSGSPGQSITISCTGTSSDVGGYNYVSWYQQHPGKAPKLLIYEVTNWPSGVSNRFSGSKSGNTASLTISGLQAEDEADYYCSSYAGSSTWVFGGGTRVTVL , state its recorded Trimeric HA Binding RLU.
984

Given TCN-538 (3206_O17) (antibody, V domains shown) VH: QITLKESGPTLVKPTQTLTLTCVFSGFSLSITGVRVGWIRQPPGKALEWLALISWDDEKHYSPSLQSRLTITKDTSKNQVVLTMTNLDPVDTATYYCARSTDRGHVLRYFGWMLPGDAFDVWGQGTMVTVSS VL: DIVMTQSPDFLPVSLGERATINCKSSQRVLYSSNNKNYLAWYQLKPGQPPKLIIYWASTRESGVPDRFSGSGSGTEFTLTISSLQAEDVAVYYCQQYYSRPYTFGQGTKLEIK , state its recorded Trimeric HA Binding RLU.
16000

Given TCN-545 (5082_I15) (antibody, V domains shown) VH: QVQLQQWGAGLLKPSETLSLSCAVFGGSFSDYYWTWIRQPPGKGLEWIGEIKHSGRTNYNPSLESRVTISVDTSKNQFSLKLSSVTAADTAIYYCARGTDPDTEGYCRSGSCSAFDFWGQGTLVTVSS VL: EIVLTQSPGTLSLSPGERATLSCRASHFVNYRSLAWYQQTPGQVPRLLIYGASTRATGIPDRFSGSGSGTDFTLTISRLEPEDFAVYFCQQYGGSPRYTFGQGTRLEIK , state its recorded Trimeric HA Binding RLU.
818

Given TCN-504 (3251_K17) (antibody, V domains shown) VH: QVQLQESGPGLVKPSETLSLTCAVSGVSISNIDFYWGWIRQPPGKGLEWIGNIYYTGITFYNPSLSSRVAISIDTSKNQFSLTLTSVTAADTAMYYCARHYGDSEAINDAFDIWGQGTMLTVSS VL: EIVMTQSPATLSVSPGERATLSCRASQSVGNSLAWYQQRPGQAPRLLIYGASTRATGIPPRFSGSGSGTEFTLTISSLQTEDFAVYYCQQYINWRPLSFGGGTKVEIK , state its recorded Trimeric HA Binding RLU.
17600

Given TCN-558 (5248_H10b) (antibody, V domains shown) VH: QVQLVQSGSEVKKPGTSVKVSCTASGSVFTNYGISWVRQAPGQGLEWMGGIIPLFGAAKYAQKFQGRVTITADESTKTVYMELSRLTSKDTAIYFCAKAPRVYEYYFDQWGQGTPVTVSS VL: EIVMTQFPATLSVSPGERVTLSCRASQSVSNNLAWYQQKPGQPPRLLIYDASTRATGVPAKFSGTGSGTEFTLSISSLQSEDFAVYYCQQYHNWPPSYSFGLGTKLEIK , state its recorded Trimeric HA Binding RLU.
20200

Given TCN-553 (5261_C18) (antibody, V domains shown) VH: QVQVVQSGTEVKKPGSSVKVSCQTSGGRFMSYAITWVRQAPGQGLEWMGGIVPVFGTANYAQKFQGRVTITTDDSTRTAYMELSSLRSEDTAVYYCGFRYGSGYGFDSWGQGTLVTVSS VL: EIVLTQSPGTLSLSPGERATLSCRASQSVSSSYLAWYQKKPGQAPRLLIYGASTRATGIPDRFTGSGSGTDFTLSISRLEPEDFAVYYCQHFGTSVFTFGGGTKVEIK , state its recorded Trimeric HA Binding RLU.
23300

Given TCN-547 (5092_F11) (antibody, V domains shown) VH: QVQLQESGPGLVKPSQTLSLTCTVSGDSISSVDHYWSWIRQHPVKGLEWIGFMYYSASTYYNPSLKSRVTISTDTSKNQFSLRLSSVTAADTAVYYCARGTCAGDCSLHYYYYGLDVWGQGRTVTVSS VL: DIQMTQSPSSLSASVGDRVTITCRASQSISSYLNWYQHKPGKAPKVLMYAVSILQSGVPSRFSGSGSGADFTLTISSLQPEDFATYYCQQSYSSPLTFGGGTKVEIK , state its recorded Trimeric HA Binding RLU.
1470
